Target: Beta-secretase 1 (Homo sapiens, UniProt P56817)
Sequence (P56817 whole entry): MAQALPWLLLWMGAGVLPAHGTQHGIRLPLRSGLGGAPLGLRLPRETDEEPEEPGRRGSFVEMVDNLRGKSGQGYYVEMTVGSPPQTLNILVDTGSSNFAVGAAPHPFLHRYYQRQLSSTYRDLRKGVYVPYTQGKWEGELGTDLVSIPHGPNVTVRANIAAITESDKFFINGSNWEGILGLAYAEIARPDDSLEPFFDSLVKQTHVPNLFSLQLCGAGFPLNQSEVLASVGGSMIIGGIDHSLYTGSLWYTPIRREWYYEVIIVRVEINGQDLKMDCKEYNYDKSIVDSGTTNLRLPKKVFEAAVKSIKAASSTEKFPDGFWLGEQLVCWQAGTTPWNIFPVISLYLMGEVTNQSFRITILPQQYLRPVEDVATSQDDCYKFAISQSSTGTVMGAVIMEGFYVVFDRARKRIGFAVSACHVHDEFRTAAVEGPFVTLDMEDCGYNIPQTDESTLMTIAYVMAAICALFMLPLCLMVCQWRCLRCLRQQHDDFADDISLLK
pIC50: −log10 of the molar value.
measurement kind: pIC50

| smiles | assay result |
| --- | --- |
| COC(=O)[C@@H]1O[C@@H]2O[C@H]1C(=S)N(Cc1ccccc1)[C@H]2Cc1ccccc1 | 5.59 |

* * *

Target: Beta-secretase 1 (Homo sapiens, UniProt P56817)
Assay: Inhibition of BACE1 (unknown origin) at 10 uM pre-incubated for 10 mins before addition of fluorescent substrate HiLyte FluorTM 488-Glu-Val-Asn-Leu-Asp-Ala-Glu-Phe-Lys and measured over 30 mins

| smiles | inhibition (%) |
| --- | --- |
| O=C([C@@H]1O[C@@H]2O[C@H]1C(=S)N(Cc1ccccc1)[C@H]2Cc1ccccc1)N1CCOCC1 | 0 |
| CC(C)C[C@H](CO)NC(=O)[C@H]1O[C@@H]2CN(Cc3ccccc3)C(=O)[C@H]1O2 | 0 |
| O=C(NC1CCCCC1)[C@@H]1O[C@@]2(c3ccccc3)CN(C(c3ccccc3)c3ccccc3)C(=O)[C@@H]1O2 | 0 |
| CCOC(=O)N1CCN(C(=O)[C@@H]2O[C@H]3CN(Cc4ccccc4)C(=S)[C@@H]2O3)CC1 | 0 |
| CCOC(=O)N1CCN(C(=O)[C@H]2O[C@H]3O[C@@H]2C(=S)N(Cc2ccccc2)[C@@H]3Cc2ccccc2)CC1 | 5 |
| COC(=O)[C@@H]1O[C@@H]2O[C@H]1C(=S)N(Cc1ccccc1)[C@H]2Cc1ccccc1 | 61 |
| CC(C)C[C@@H](CO)NC(=O)[C@@H]1O[C@H]2CN(Cc3ccccc3)C(=O)[C@@H]1O2 | 8 |
| O=C([C@@H]1O[C@H]2CN(Cc3ccccc3)C(=O)[C@@H]1O2)N1CCCCC1 | 36 |

* * *

Listed below: inhibition values for each entry.
Molecular target: Beta-secretase 1 (Homo sapiens)
Assay: Inhibition of BACE1 (unknown origin) at 10 uM pre-incubated for 10 mins before addition of fluorescent substrate HiLyte FluorTM 488-Glu-Val-Asn-Leu-Asp-Ala-Glu-Phe-Lys and measured over 30 mins
measurement kind: inhibition (%)

| smiles | target | result units | assay result |
| --- | --- | --- | --- |
| O=C([C@@H]1O[C@@H]2O[C@H]1C(=O)N(Cc1ccccc1)[C@H]2Cc1ccccc1)N1CCCCC1 | Beta-secretase 1 (Homo sapiens) | % | 15 |
| C#CCNC(=O)[C@@H]1O[C@@H]2O[C@H]1C(=O)N(Cc1ccccc1)[C@H]2Cc1ccccc1 | Beta-secretase 1 (Homo sapiens) | % | 29 |
| CC(C)C[C@@H](CO)NC(=O)[C@H]1O[C@@H]2CN(Cc3ccccc3)C(=O)[C@H]1O2 | Beta-secretase 1 (Homo sapiens) | % | 0 |
| C#CCNC(=O)[C@@H]1O[C@H]2CN(Cc3ccccc3)C[C@@H]1O2 | Beta-secretase 1 (Homo sapiens) | % | 0 |
| CC(C)C[C@H](CO)NC(=O)[C@@H]1O[C@H]2CN(Cc3ccccc3)C(=O)[C@@H]1O2 | Beta-secretase 1 (Homo sapiens) | % | 0 |
| O=C([C@@H]1O[C@@]2(c3ccccc3)CN(Cc3ccccc3)C(=O)[C@@H]1O2)N1CCOCC1 | Beta-secretase 1 (Homo sapiens) | % | 0 |
| COC(=O)[C@H](CC(C)C)N1C[C@@H]2O[C@@H](C(=O)N3CCCCC3)[C@@H](O2)C1=O | Beta-secretase 1 (Homo sapiens) | % | 46 |
| COC(=O)[C@@H]1O[C@H]2CN(Cc3ccccc3)C(=S)[C@@H]1O2 | Beta-secretase 1 (Homo sapiens) | % | 16 |
| COC(=O)[C@H]1O[C@H]2O[C@@H]1C(=S)N(Cc1ccccc1)[C@@H]2Cc1ccccc1 | Beta-secretase 1 (Homo sapiens) | % | 9 |
